- Test system: strains TA98
- Type: cell-based
- STUDY CONDITIONS: 313 μg/plate, with S-9
QUANTITY KIND: Ames test: ratio of number of colonies to control
# output: bare number, no unit

COMPOUND	QUANTITATIVE RESULT
Nc1ccc(N=Nc2ccc(Oc3cccc(Oc4ccc(N=Nc5cc(S(=O)(=O)O)c6cc(S(=O)(=O)O)c(N=Nc7ccccc7)c(O)c6c5N)cc4)c3)cc2)c(O)c1	1.16
Cc1cc(-c2ccc(N=Nc3c(S(=O)(=O)O)cc4cc(S(=O)(=O)O)c(N=Nc5ccccc5)c(O)c4c3N)c(C)c2)ccc1N=Nc1ccc(N)cc1N [compound 1, reference compound]	2.50
Nc1ccc(N=Nc2ccc(S(=O)(=O)c3ccc(N=Nc4c(S(=O)(=O)O)cc5cc(S(=O)(=O)O)c(N=Nc6ccccc6)c(O)c5c4N)cc3)cc2)c(O)c1 [compound 2, reference compound]	9.11
Nc1ccc2c(O)c(N=Nc3ccccc3)c(S(=O)(=O)O)cc2c1N=Nc1ccc(Oc2ccc(Oc3ccc(N=Nc4ccc(O)cc4O)cc3)cc2)cc1	1.34

For record `Nc1c(N=Nc2ccc(Oc3ccc(Oc4ccc(N=Nc5ccc(O)cc5O)cc4)cc3)cc2)c(S(=O)(=O)O)cc2cc(S(=O)(=O)O)c(N=Nc3ccccc3)c(O)c12` the listed Ames test: ratio of number of colonies to control is 0.86

###

- System: strains TA98
- Assay type: cell-based
- STUDY CONDITIONS: 1250 μg/plate, without S-9
QUANTITY KIND: Ames test: ratio of number of colonies to control
Answer using only a numeral; do not append any unit.

Worked cases, Ames test: ratio of number of colonies to control given:
COMPOUND	QUANTITATIVE RESULT
Nc1ccc2c(O)c(N=Nc3ccccc3)c(S(=O)(=O)O)cc2c1N=Nc1ccc(Oc2ccc(Oc3ccc(N=Nc4ccc(O)cc4O)cc3)cc2)cc1	1.04
Nc1c(N=Nc2ccc(Oc3ccc(Oc4ccc(N=Nc5ccc(O)cc5O)cc4)cc3)cc2)c(S(=O)(=O)O)cc2cc(S(=O)(=O)O)c(N=Nc3ccccc3)c(O)c12	0.79
Nc1ccc(N=Nc2ccc(Oc3ccc(Oc4ccc(N=Nc5c(S(=O)(=O)O)cc6cc(S(=O)(=O)O)c(N=Nc7ccccc7)c(O)c6c5N)cc4)cc3)cc2)c(O)c1	1.15
Cc1cc(-c2ccc(N=Nc3c(S(=O)(=O)O)cc4cc(S(=O)(=O)O)c(N=Nc5ccccc5)c(O)c4c3N)c(C)c2)ccc1N=Nc1ccc(N)cc1N [compound 1, reference compound]	0.76

Note to self: Ames test: ratio of number of colonies to control recorded for Cc1cc(-c2ccc(N=Nc3c(S(=O)(=O)O)cc4cc(S(=O)(=O)O)c(N=Nc5ccc(S(=O)(=O)O)cc5)c(O)c4c3N)c(C)c2)ccc1N=Nc1ccc(O)cc1O [compound 3, reference compound] was 3.56

Reported Ames test: ratio of number of colonies to control ( `Nc1c(N=Nc2ccc(Oc3cccc(Oc4ccc(N=Nc5ccc(O)cc5O)cc4)c3)cc2)c(S(=O)(=O)O)cc2cc(S(=O)(=O)O)c(N=Nc3ccccc3)c(O)c12` ) = 1.16

Item: CCC(C)c1ccc(N=Nc2c(S(=O)(=O)O)cc3cc(S(=O)(=O)O)c(N=Nc4ccc(Oc5ccc(Oc6ccc(N=Nc7ccc(O)cc7O)cc6)cc5)cc4)c(N)c3c2O)cc1 (centres unmarked) | Ames test: ratio of number of colonies to control: 0.97

The value of Ames test: ratio of number of colonies to control measured for the compound `Nc1ccc(N=Nc2ccc(Oc3cccc(Oc4ccc(N=Nc5cc(S(=O)(=O)O)c6cc(S(=O)(=O)O)c(N=Nc7ccccc7)c(O)c6c5N)cc4)c3)cc2)c(O)c1` turned out to be 0.60

###

- Test system: strains TA98
- Assay type: cell-based
- STUDY CONDITIONS: 5000 μg/plate, with S-9
Rule: Ames test: ratio of number of colonies to control below 1 gives Yes. Equal to or above 1 gives No.

The following molecules have reported results that may help.
MOLECULE	STUDY SYSTEM	CATEGORY LABEL
CCC(C)c1ccc(N=Nc2c(S(=O)(=O)O)cc3cc(S(=O)(=O)O)c(N=Nc4ccc(Oc5ccc(Oc6ccc(N=Nc7ccc(O)cc7O)cc6)cc5)cc4)c(N)c3c2O)cc1 (centres unmarked)	strains TA98	Yes
Cc1ccccc1N=Nc1c(S(=O)(=O)O)cc2cc(S(=O)(=O)O)c(N=Nc3ccc(Oc4ccc(Oc5ccc(N=Nc6ccc(O)cc6O)cc5)cc4)cc3)c(N)c2c1O	strains TA98	No
Nc1ccc2c(O)c(N=Nc3ccccc3)c(S(=O)(=O)O)cc2c1N=Nc1ccc(Oc2ccc(Oc3ccc(N=Nc4ccc(O)cc4O)cc3)cc2)cc1	strains TA98	No
Nc1ccc(N=Nc2ccc(Oc3ccc(Oc4ccc(N=Nc5c(S(=O)(=O)O)cc6cc(S(=O)(=O)O)c(N=Nc7ccccc7)c(O)c6c5N)cc4)cc3)cc2)c(O)c1	strains TA98	Yes
CCC(C)c1ccc(N=Nc2c(S(=O)(=O)O)cc3cc(S(=O)(=O)O)c(N=Nc4ccc(Oc5cccc(Oc6ccc(N=Nc7ccc(O)cc7O)cc6)c5)cc4)c(N)c3c2O)cc1 (centres unmarked)	strains TA98	Yes
Cc1cc(-c2ccc(N=Nc3c(S(=O)(=O)O)cc4cc(S(=O)(=O)O)c(N=Nc5ccccc5)c(O)c4c3N)c(C)c2)ccc1N=Nc1ccc(N)cc1N [compound 1, reference compound]	strains TA98	Yes

Identify whether the molecule Cc1cc(-c2ccc(N=Nc3c(S(=O)(=O)O)cc4cc(S(=O)(=O)O)c(N=Nc5ccc(S(=O)(=O)O)cc5)c(O)c4c3N)c(C)c2)ccc1N=Nc1ccc(O)cc1O [compound 3, reference compound] records Ames test: ratio of number of colonies to control below 1.
Yes

Just wondering, is Ames test: ratio of number of colonies to control of Nc1ccc(N=Nc2ccc(S(=O)(=O)c3ccc(N=Nc4c(S(=O)(=O)O)cc5cc(S(=O)(=O)O)c(N=Nc6ccccc6)c(O)c5c4N)cc3)cc2)c(O)c1 [compound 2, reference compound] below 1?
No

Does `Nc1c(N=Nc2ccc(Oc3ccc(Oc4ccc(N=Nc5ccc(O)cc5O)cc4)cc3)cc2)cc(S(=O)(=O)O)c2ccc(N=Nc3ccccc3)c(O)c12` have Ames test: ratio of number of colonies to control strictly under 1?
Yes

For this molecule, is Ames test: ratio of number of colonies to control lower than 1? `Nc1ccc(N=Nc2ccc(Oc3ccc(Oc4ccc(N=Nc5c(S(=O)(=O)O)cc6cc(S(=O)(=O)O)c(N=Nc7ccc(S(=O)(=O)O)cc7)c(O)c6c5N)cc4)cc3)cc2)c(O)c1`
No

Does `Nc1ccc(N=Nc2ccc(Oc3cccc(Oc4ccc(N=Nc5c(S(=O)(=O)O)cc6cc(S(=O)(=O)O)c(N=Nc7ccccc7)c(O)c6c5N)cc4)c3)cc2)c(O)c1` have Ames test: ratio of number of colonies to control strictly under 1?
Yes

###

Recorded measurements of Ames test: ratio of number of colonies to control, one per entry
- System: strains TA98
- Type: cell-based
- STUDY CONDITIONS: 313 μg/plate, without S-9
Could you keep your reply to the number by itself?

As a guide, the following entries are already answered.
COMPOUND	STUDY SYSTEM	QUANTITATIVE RESULT
Cc1ccccc1N=Nc1c(S(=O)(=O)O)cc2cc(S(=O)(=O)O)c(N=Nc3ccc(Oc4ccc(Oc5ccc(N=Nc6ccc(O)cc6O)cc5)cc4)cc3)c(N)c2c1O	strains TA98	0.80
Nc1ccc(N=Nc2ccc(Oc3ccc(Oc4ccc(N=Nc5c(S(=O)(=O)O)cc6cc(S(=O)(=O)O)c(N=Nc7ccccc7)c(O)c6c5N)cc4)cc3)cc2)c(O)c1	strains TA98	0.96
Nc1c(N=Nc2ccc(Oc3ccc(Oc4ccc(N=Nc5ccc(O)cc5O)cc4)cc3)cc2)c(S(=O)(=O)O)cc2cc(S(=O)(=O)O)c(N=Nc3ccccc3)c(O)c12	strains TA98	0.63

Record Cc1cc(-c2ccc(N=Nc3c(S(=O)(=O)O)cc4cc(S(=O)(=O)O)c(N=Nc5ccc(S(=O)(=O)O)cc5)c(O)c4c3N)c(C)c2)ccc1N=Nc1ccc(O)cc1O [compound 3, reference compound] has strains TA98 Ames test: ratio of number of colonies to control equal to 2.56

Tested on strains TA98: `Nc1c(N=Nc2ccc(Oc3cccc(Oc4ccc(N=Nc5ccc(O)cc5O)cc4)c3)cc2)c(S(=O)(=O)O)cc2cc(S(=O)(=O)O)c(N=Nc3ccccc3)c(O)c12` . Observed Ames test: ratio of number of colonies to control: 1.02

###

- System: strains TA98
- Assay type: cell-based
- STUDY CONDITIONS: 78 μg/plate, without S-9
QUANTITY KIND: Ames test: ratio of number of colonies to control
Form: value (number only, do not type unit).

COMPOUND	QUANTITATIVE RESULT
Nc1c(N=Nc2ccc(Oc3cccc(Oc4ccc(N=Nc5ccc(O)cc5O)cc4)c3)cc2)c(S(=O)(=O)O)cc2cc(S(=O)(=O)O)c(N=Nc3ccccc3)c(O)c12 [Ex. 2]	1.20

Here is the next item to consider.
According to the records, this compound Nc1c(N=Nc2ccc(Oc3ccc(Oc4ccc(N=Nc5ccc(O)cc5O)cc4)cc3)cc2)c(S(=O)(=O)O)cc2cc(S(=O)(=O)O)c(N=Nc3ccccc3)c(O)c12 [Ex. 5] displays Ames test: ratio of number of colonies to control of 0.95

Values were extracted from patent US5336763A.
